System: L. amazonensis promastigotes
Assay: Anti-promastigote assay (resazurin viability)
Conditions: peritoneal macrophages vs promastigotes
Decision: SI (CC50 on murine peritoneal macrophages/IC50 on promastigotes) compared against 7; not below it gives met, below it gives not met.

Please review the entries below; each comes with its answer.
molecule	tested-target	discrete-label
Cc1ccc(-c2nnc([Se]c3ccccc3)o2)cc1	L. amazonensis promastigotes	met
Cc1ccn2c([Se]c3ccccc3)c(-c3ccccc3)nc2c1	L. amazonensis promastigotes	not met

Hi, just wondering whether "N#C[Se]Cc1cc(=O)oc2cc(O)ccc12" shows SI (CC50 on murine peritoneal macrophages/IC50 on promastigotes) of 7 or higher.
met

Same for "Oc1ccc2ccccc2c1[Se]c1ccccc1"
met

Okay, and "Cc1cn2c([Se]c3ccccc3)c(-c3ccccc3)nc2s1" ?
met

Can you handle C[C@@H]1[C@H](O)[C@@H](C)/C=C/C=C/C=C/C=C/C=C/C=C/C=C/[C@H](O[C@@H]2O[C@H](C)[C@@H](O)[C@H](N)[C@@H]2O)C[C@@H]2O[C@](O)(C[C@@H](O)C[C@@H](O)[C@H](O)CC[C@@H](O)C[C@@H](O)CC(=O)O[C@H]1C)C[C@H](O)[C@H]2C(=O)O [ANFB, amphotericin B, reference compound] next?
not met

// same read-out, input: "CC(C)(C)c1cc(O)cc(C(C)(C)C)c1[Se]C#N"
met

What about "COc1ccccc1[Se]c1c(-c2ccccc2)nc2cc(C)ccn12" ?
met
